Quick reference for protein stability index among some sequences
assay: protein stability index of a GFP-peptide fusion (GPS, HEK-293T) (PSI 1-6); higher = more stable; conditions: treatment: MLN4924 1 uM, 8 h; c terminus: a fixed tail appended;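 also: 24-mer peptide tiles fused after GFP, lentivirally expressed, FACS-sorted into six equal bins by GFP/DsRed ratio, decoded by Illumina sequencing, PSI is the read-weighted mean bin number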

{"columns": ["BIOPOLYMER SEQUENCE", "protein stability index"],
 "data": [
  ["LLARLRELEQQIWKERDEYITKVS [TRIM15]", 1.96],
  ["KAQIWDTAGQERYRAITSAYYRGA [RAB11A]", 2.98],
  ["RYGQLIEINSHSLFSKWFSESGKL [TRIP13]", 2.49],
  ["GSLRTLELGSESQGASESQAPGEE [HDAC6]", 5.58],
  ["ELVVRFFACPSKTDFFKNIMNFID [KCNA1]", 2.33],
  ["QCDALIDALNRRKAQLLARVNKEH [TRIM9]", 3.27],
  ["IQAEERLDMEKRRCRQSLEDSESL [LRRC45]", 5.16],
  ["FHEVGTEMIITKAGRRMFPSYKVK [TBX5]", 2.72],
  ["TLGEQGLPHQSHRQRSSLAKINIV [SCNN1D]", 3.33],
  ["MSVDPACPQSLPCFEASDCKESSP [NANOGP8]", 5.41],
  ["RYNFTPDPDFKDLGALKPLPACEF [NETO1]", 2.93],
  ["GAQGSGGGSTSAHYAVNSQFTMGG [CARM1]", 4.23],
  ["FVTYVFFVFFVLLNMFLAIINDTY [PKD2L1]", 2.26],
  ["SSKSSGDLVDLFDGTSQSTGGSAD [CLINT1]", 5.55],
  ["QRFRQFQYREAAGPHEAFNKLWEL [ZNF449]", 2.33],
  ["YHNSPAYLAYINAKSRAEAALEEE [SMARCE1]", 4.01],
  ["WTLYKILDSCKQLTLAQGAGEEDP [SMG5]", 2.56],
  ["MEAMAASTSLPDPGDFDRNVPRIC [VDR]", 4.53],
  ["LLCNAITGITLLRVKFKSQQHRQG [PTGFR]", 2.21],
  ["EVHVPPSSAVSGVKEWFGLGGEQA [MIA2]", 4.29],
  ["LIPLANTGIVNHTHSRMGSIMSTG [CARM1]", 2.47],
  ["LLMVRASRRSGKTSAVLKAGRQSV [C6orf223]", 2.85],
  ["ATFLVTFGNSEKPETMTCRLSNNQ [ZFYVE21]", 2.24],
  ["GSRTPGRSELVEGCGWRCPEHGDR [TRIM14]", 4.48],
  ["IETLRLAKNYIWALSEILRIGKRP [NEUROD6]", 2.65],
  ["PDGGRADEWACELRLFGRVLERAA [P3H4]", 2.62],
  ["LQKKLDNLQCLYCEKTFRDKNTLK [ZNF277]", 2.86]
]}

###

assay: protein stability index of a GFP-peptide fusion (GPS, HEK-293T) (PSI 1-6); higher = more stable; conditions: treatment: DMSO; c terminus: a fixed tail appended
Outcome label depends on protein stability index relative to 3: at/above gives t, below gives f.

{"columns": ["BIOPOLYMER SEQUENCE", "CAT"],
 "data": [
  ["LEELIDMAVLEEIQQELIKQEQSI [RPAIN]", "t"],
  ["SAVTSVRILQDEQYLMASDMAGKI [DCAF4]", "t"],
  ["VRSRLEEAGIKVHDVRLNGSAAGH [TENT5C]", "f"],
  ["RMRYLNGLDPEPLPLMDLCRRSVR [SPSB1]", "t"],
  ["HVKFRSLSMVSECLFSLINGDDMF [MCOLN1]", "f"],
  ["YDGRSRLSSVECLDYTADEDGVWY [KLHL12]", "t"],
  ["IGVAGNHWDGYSKGVNRKLGRTGL [FUT8]", "t"]
]}

###

test: protein stability index of a GFP-peptide fusion (GPS, HEK-293T) (PSI 1-6); higher = more stable; conditions: treatment: MLN4924 1 uM, 8 h; c terminus: a fixed tail appended
Outcome label depends on protein stability index relative to 3: at/above gives fulfilled, below gives not fulfilled.

{"columns": ["BIOPOLYMER SEQUENCE", "CAT"],
 "data": [
  ["MAGRPHPYDGNSSDPENWDRKLHS [BTBD10]", "fulfilled"],
  ["VRAKGSQSGRHLQTHSNTIVVSLQ [STX5]", "not fulfilled"],
  ["LLYLLHILLLDGAAWLTLWVFGTS [FADS1]", "not fulfilled"],
  ["LPPQYVDDVISRIDRMFPEMSIHL [MED27]", "not fulfilled"],
  ["HQRDGTLGALHTSSKPTALPSASS [SASS6]", "fulfilled"],
  ["DAINEEIRMIQEEKESTELRAEEI [PPFIA4]", "fulfilled"],
  ["RIDSQFLIGDTLLVAPVLEPGKQE [MYORG]", "fulfilled"],
  ["MEEASEGGGNDRVRNLQSEVEGVK [VAMP8]", "fulfilled"],
  ["EYEGGHIKTAVNLPLERDAESFLL [CDC25B]", "fulfilled"],
  ["CPLTRSNGDLSRSLSPSPLGSSAA [FCHO1]", "fulfilled"],
  ["GEKSENNSSNSDIVHVEKEEVPEG [BCL2L13]", "fulfilled"],
  ["ATALAPLQTDHYAALLGSNSESWG [SPSB2]", "fulfilled"],
  ["MFGLVIPLGVLQAIAMYFLPPSPR [SLC2A12]", "not fulfilled"],
  ["GAGHCSASPGPAAPTARMPGRLRG", "fulfilled"],
  ["VALPTEAEFQLVRDVVLCSLLNFL [TENT5C]", "not fulfilled"],
  ["GVRVSVPCPSTTCCRACSVSFSTG [BET1L]", "not fulfilled"],
  ["GYDDDNHDYIVRSGERWLERYEID [DYRK1B]", "fulfilled"],
  ["SRVKCDQYWPSRGTETHGLVQVTL [PTPRD]", "not fulfilled"],
  ["FYHCSNDDEGDSYSDNPCSCSQSH [SPRY1]", "fulfilled"],
  ["VQLRFCGRQPCGRFLRAYREGALR [TRADD]", "not fulfilled"],
  ["PCLDQTRVKLTKRSGHTQTDYINA [PTPN9]", "fulfilled"],
  ["IHSHHDGVLRPTVRPGTPPDFILK [CTDNEP1]", "fulfilled"],
  ["EEVVSTLDAVQVLSGVSQLLPKSR [FCHO1]", "fulfilled"],
  ["GSSGASDQDTLAPLPHPGAAPWPM [DVL3]", "fulfilled"],
  ["TLARMSRRTRGPVERAAAAAAAAA [C6orf223]", "fulfilled"],
  ["SHLSDTGISALVEIPKNCVVAAVG [WDR41]", "fulfilled"],
  ["DQIRQGIQLKSVADGQESTPPTPA [WASL]", "fulfilled"],
  ["KAHSGRIPISLETQAHIQECKHPS [MCOLN1]", "fulfilled"],
  ["DNWIPLLWCANILGYAVSTFAMVK [DHCR7]", "fulfilled"],
  ["SREWSGKEKWWDGQRDRKAEHWKH [PBXIP1]", "fulfilled"],
  ["WDKHACPAYVGPEILSSRASYSGK [TRIB3]", "fulfilled"],
  ["QDNNCHFDAALVSFINFFTSVLAT [SLC6A17]", "not fulfilled"],
  ["EVAAQLPAVRQLLPCARVQICRAQ [ZSWIM9]", "not fulfilled"],
  ["TCGEGYQFRVVRCWKMLSPGFDSS [ADAMTSL2]", "not fulfilled"],
  ["DGEEIPVQKNILAAASPYIRTKLN [GAN]", "fulfilled"],
  ["SGLIYLTNHIAPHARNGLSLKEEH [IKZF1]", "not fulfilled"],
  ["DLDETLIHSHHDGVLRPTVRPGTP [CTDNEP1]", "fulfilled"],
  ["LFQRKLSWIKMTKLEYEEIALDLT [FAN1]", "not fulfilled"],
  ["EAECEKSSATTYFWYREALDISDS [SLC6A17]", "fulfilled"],
  ["QALAQAIKEAKEQHPDMSVTKVVV [EPB41L3]", "not fulfilled"],
  ["RHLNDDDVTGSVKSERRNLLEDDS [VAMP4]", "fulfilled"],
  ["LSELPPLEDMGQPPAEEAEQPGAL [FKBP8]", "fulfilled"],
  ["HAEIIAWIRICRPGSIIGPQQHFL [CDC14A]", "not fulfilled"],
  ["FHYVDILALLPAAWEDSHGSQDGH [SCNN1D]", "not fulfilled"],
  ["DVFERDWYSPYAKTLQPTKQPNCS [PLD5]", "fulfilled"],
  ["PQELLEWELVVLGKLKWNLAAVTP [CCND2]", "not fulfilled"],
  ["ISAVNYDFDEEYFSNTSELAKDFI [DAPK3]", "fulfilled"],
  ["KEASRHAIMRSPQMVSAIVRTMQN [CTNNB1]", "fulfilled"],
  ["MWRDLTDEEKQEYLNEYEAEKIEY [SMARCE1]", "fulfilled"]
]}
